tested on: adult cat fleas (Ctenocephalides felis); assay: Ctenocephalides felis in-vitro contact test, adult cat flea; format: in vivo; conditions: application rate 5 μg/cm^2 (=500 g/ha), after 48 hours, read-out: activity (efficacy: fleas dead or moribund)
measurementType: pest or weed control at 5 µg/cm2 (%)

| molSmiles | measurementType | resultNumber |
| --- | --- | --- |
| Cc1nc([C@H](C)NC(=O)c2cc(C(F)(F)F)cc(C3(C#N)CC3)c2)n(-c2ccc(Cl)cn2)n1 | pest or weed control at 5 µg/cm2 | 100 |
| C[C@H](NC(=O)c1cc(Cl)cc(S(C)(=O)=O)c1)c1nc(C2CC2)nn1-c1ccc(C#N)cn1 | pest or weed control at 5 µg/cm2 | 90 |
| COc1nc([C@H](C)NC(=O)c2cc(Cl)cc(S(=O)(=O)C(F)(F)F)c2)n(-c2ccc(Cl)cn2)n1 | pest or weed control at 5 µg/cm2 | 90 |
| CCc1nc([C@H](C)NC(=O)c2cc(Cl)cc(S(C)(=O)=O)c2)n(-c2ccc(C#N)cn2)n1 | pest or weed control at 5 µg/cm2 | 90 |
| Cc1nc([C@H](C)NC(=O)c2cc(Cl)nn2C)n(-c2ccc(C#N)cn2)n1 | pest or weed control at 5 µg/cm2 | 100 |
| C[C@H](NC(=O)c1csc(Cl)c1)c1ncnn1-c1ncccn1 | pest or weed control at 5 µg/cm2 | 90 |
| Cc1nc([C@H](C)NC(=O)c2cc(C(F)F)cc(C3CC3)c2)n(-c2ccc(C#N)cn2)n1 | pest or weed control at 5 µg/cm2 | 100 |
